Please respond with reported melting point for every item in the list.

(Q) # get_value(readout='melting point', item= O=C1COCC(c2ccccc2)N1C(=O)Oc1ccc([N+](=O)[O-])cc1 (stereo not drawn) )
(A) 105 to 109 °C

(Q) Give the measured melting point of CCCCCc1ncc(C(=O)OCC)c(NCc2ccc(-c3ccccc3-c3nnnn3C(c3ccccc3)(c3ccccc3)c3ccccc3)cc2)n1 .
(A) 107 to 108 °C

(Q) So what does the record say about melting point for CCOC(=O)/C(=C\Nc1ccc(OC)cc1)c1ccc(OC)cc1 ?
(A) 90 to 91 °C

(Q) melting point for CN1CC(CCCl)Oc2cc(Cl)ccc2C1=S (stereo not drawn) ?
(A) 105 to 106 °C

(Q) Fill in: melting point of CC1CCN(C(=O)NCCc2ccc(S(=O)(=O)NC(=O)NC3CCCCC3)cc2)C(=O)C1 (stereo not drawn) is ___
(A) 176 to 178 °C

(Q) Which melting point reading was recorded for the compound Nc1c(Cl)cc(C(O)CNCCCCCCOCCCc2cncc(CC(=O)O)c2)cc1Cl (stereo not drawn) ?
(A) 191 to 192 °C

(Q) Endpoint output: melting point of O=[N+]([O-])c1ccc(C#CCCN2CCN(c3ccccn3)CC2)nc1 . Value?
(A) 126 °C

(Q) Need melting point of [O-][N+]1=C(c2ccccc2Cl)c2nc(Cl)ccc2-n2cnnc2C1 , thanks.
(A) 242 to 244 °C

---

quantityMeasured: melting point

(Q) GET /values?readout=melting point&item= CCOC(=O)C(=Cc1cccc2ccccc12)c1csc(N)n1
(A) 155 to 157 °C

(Q) Quick one: melting point for CC(C)C[C@H](NC(=O)OCc1ccccc1)C(=O)N[C@@H](Cc1ccccc1)C(=O)CN1CCN(C)CC1 ?
(A) 99 to 100 °C

(Q) Looking for the measured melting point of N#Cc1cnn2c(C(F)(F)F)cc(-c3ccccc3Cl)nc12 , can you help?
(A) 169 °C

---

I'd be grateful if you could share measured melting point for these entries.

(Q) I am curious: what melting point value has been reported for CCCCCCCNC(=O)Nc1ccc(-n2cccn2)cc1C(=O)NCC1CCN(C(c2ccccc2)c2ccccc2)CC1 ?
(A) 176 to 178 °C

(Q) Suppose we examine the compound O=C(O)c1ccc(S(=O)(=O)c2ccccc2)cc1 ; what melting point value has been reported?
(A) 128 to 132 °C

(Q) Requested read-out: melting point. Entry: O=C(Nc1nccs1)C(CC1CCCC1)c1ccc(-c2ccc3[nH]ccc3c2)cc1 (stereo not drawn)
(A) 112 to 115 °C

(Q) Need melting point, item O=C(O)Cc1ccc(NC(=O)C(Cc2ccccc2)NS(=O)(=O)c2ccc(Br)cc2)cc1 (racemic)
(A) 184 to 185 °C

(Q) Suppose we examine the compound Cc1c(C(=O)C(N)=O)c2c(OCC(=O)O)cc3c(c2n1Cc1ccccc1)CCCC3 ; what melting point value has been reported?
(A) > 300 °C

(Q) What does the data say about its melting point? Entry: COc1ccccc1-n1c(=O)[nH]c2c(C(N)=O)nc(-c3cccc4[nH]ccc34)nc21
(A) 312 to 313 °C

(Q) I'd like to know its melting point. The compound in question is COc1ccc(/C=C/S(=O)(=O)CS(=O)(=O)/C=C/c2ccc(OC)c(O)c2)cc1O
(A) 148 to 150 °C

(Q) Quick one: melting point of CCOC(=O)CCNC(=O)CN1CCOc2ccc(NC(=O)NCc3ccccc3)cc2C1=O ?
(A) 70 to 75 °C

(Q) Requested field: melting point. Item: CCOC(=O)c1ccc(-c2cccc(O)c2)c(C(C)(C)C)c1
(A) 118 to 120 °C

(Q) Find the recorded melting point belonging to COc1ccc(Nc2ccc(Nc3ncnc4ccsc34)cc2)cc1 and report it.
(A) 181 to 186 °C

(Q) Data request, read-out melting point, for CN1CCC(C2c3sccc3CCn3ccnc32)CC1 (stereo not drawn)
(A) 121 °C

(Q) Give its melting point value. Item: CC(C)(C)OC(=O)[C@@H]1CS[C@H](c2cccc(O)c2)N1C(=O)CNC(=O)Nc1cccc(C(=O)O)c1
(A) 150 °C

(Q) What measured melting point goes with O=C(O)c1ccc(-c2ccc(OCCCCO)c(-c3ccc(N4CCCC4)c(C(F)(F)F)c3)c2)cc1 ?
(A) 237 °C

(Q) Which melting point value belongs to Cc1cccc(Nc2ccccc2C(=O)OCc2ccccn2)c1C ?
(A) 63 to 64 °C

(Q) What value of melting point has been recorded for this entry: COc1cc(OC)cc(-c2nc[nH]c2-c2ccc(OC)c(O)c2N)c1
(A) 148 °C

(Q) Given CN1C(=O)C(c2ccc[nH]2)=C(c2cn(C(=O)OC(C)(C)C)c3ccccc23)C1=O , state its recorded melting point.
(A) 82 to 83 °C

(Q) Record request: melting point value, item CC(=O)N1CCC(n2nc(-c3c(-c4ccccc4)nn4ccccc34)ccc2=O)CC1
(A) 114 to 117 °C

(Q) Consider the compound shown here: COc1cc2c(cc1OC)CN(CCCc1ccc(N)cc1)CC2 What is its recorded melting point?
(A) 138 °C
